- target entity: human STING (Homo sapiens)
- Sequence (Q86WV6 whole entry H232R): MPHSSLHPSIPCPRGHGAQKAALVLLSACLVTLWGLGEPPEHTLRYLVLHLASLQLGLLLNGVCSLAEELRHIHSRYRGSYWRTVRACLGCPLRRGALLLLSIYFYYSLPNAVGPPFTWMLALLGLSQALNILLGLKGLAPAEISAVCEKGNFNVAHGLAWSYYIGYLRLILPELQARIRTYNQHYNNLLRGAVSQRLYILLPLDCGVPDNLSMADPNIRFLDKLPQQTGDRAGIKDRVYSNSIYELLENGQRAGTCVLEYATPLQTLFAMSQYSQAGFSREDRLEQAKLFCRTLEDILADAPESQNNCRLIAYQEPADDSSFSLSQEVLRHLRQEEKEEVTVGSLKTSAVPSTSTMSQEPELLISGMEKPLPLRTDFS
- assay comment: Fluorescence Thermal Shift assay (binding to STING)
- measurement conditions: STING 0.1 mg/mL, SyproOrange, 25 to 99° C.
measured quantity: hSTING FTS binding assay (ΔT C. °)

# compound, result
records = [
    ("CNC1CCN(c2cc3c(cc2F)c(=O)c(CN(Cc2ccnc(C)c2)[C@H]2CCCN(c4ccc(C)nc4)C2)cn3C2CC2)CC1.Cl [Example 19]", "+++ (+++=ΔTm ≥20° C.)"),
    ("Cc1ccc(N2CCC[C@H](N(Cc3ccnc(C)c3)Cc3cn(C4CC4)c4cc(OCCN)c(F)cc4c3=O)C2)cn1 [Example 10]", "+++ (+++=ΔTm ≥20° C.)"),
    ("Cc1ccc(N2CCC[C@H](N(Cc3ccnc(C)c3)Cc3cn(C4CC4)c4cc(N)c(F)cc4c3=O)C2)cn1 [Example 7]", "+++ (+++=ΔTm ≥20° C.)"),
    ("Cc1ccc(N2CCC[C@H](N(Cc3ccnc(C)c3)Cc3cn(C4CC4)c4cc(NCCN(C)C)c(F)cc4c3=O)C2)cn1 [Example 9]", "+++ (+++=ΔTm ≥20° C.)"),
]
